Assay: Pharmacokinetic evaluation in humans
Type: in vivo
Settings: human, plasma, 20 mg, compartmental, read-out: AUCinf, Minimum, maximum
endpoint label: AUC(0-inf)

compound | result
C[C@H](NC(=O)[C@H](CCC(=O)O)NC(=O)CCCC[C@@H]1CCSS1)C(=O)O [RLip-EA-OH, N-(R)-lipoyl-L-glutamyl-L- alanine] | 474 to 787 ng·h/mL

----------
Assay: Pharmacokinetic evaluation in humans
Assay type: in vivo
Conditions: human, plasma, 60 mg, noncompartmental, read-out: Cmax, Mean (SD)

compound | Cmax / ng/mL
C[C@H](NC(=O)[C@H](CCC(=O)O)NC(=O)CCCC[C@@H]1CCSS1)C(=O)O [RLip-EA-OH, N-(R)-lipoyl-L-glutamyl-L- alanine] | 6560

----------
Test: Pharmacokinetic evaluation in humans
Format: in vivo
Conditions: human, plasma, 150 mg, compartmental, read-out: Vss, Median

molecule | Vd
C[C@H](NC(=O)[C@H](CCC(=O)O)NC(=O)CCCC[C@@H]1CCSS1)C(=O)O [RLip-EA-OH, N-(R)-lipoyl-L-glutamyl-L- alanine] | 13 L

----------
Assay: Pharmacokinetic evaluation in humans
Format: in vivo
Details: human, plasma, 300 mg, noncompartmental, read-out: Cmax, Median
endpoint label: Cmax

compound | result
C[C@H](NC(=O)[C@H](CCC(=O)O)NC(=O)CCCC[C@@H]1CCSS1)C(=O)O [RLip-EA-OH, N-(R)-lipoyl-L-glutamyl-L- alanine] | 42200 ng/mL

----------
Assay: Pharmacokinetic evaluation in humans
Format: in vivo
Conditions: human, plasma, 20 mg, read-out: CL (converted)

compound | clearance, mL/min
C[C@H](NC(=O)[C@H](CCC(=O)O)NC(=O)CCCC[C@@H]1CCSS1)C(=O)O [RLip-EA-OH, N-(R)-lipoyl-L-glutamyl-L- alanine] | 588

----------
Experiment: Pharmacokinetic evaluation in humans
Assay type: in vivo
Details: human, plasma, 20 mg, noncompartmental, read-out: AUCinf, Minimum, maximum
endpoint label: AUC(0-inf)

compound | result
C[C@H](NC(=O)[C@H](CCC(=O)O)NC(=O)CCCC[C@@H]1CCSS1)C(=O)O [RLip-EA-OH, N-(R)-lipoyl-L-glutamyl-L- alanine] | 467 to 718 ng·h/mL

----------
Assay: Pharmacokinetic evaluation in humans
Format: in vivo
Conditions: human, plasma, 20 mg, noncompartmental, read-out: AUCinf, Median

compound | AUC(0-inf) (ng·h/mL)
C[C@H](NC(=O)[C@H](CCC(=O)O)NC(=O)CCCC[C@@H]1CCSS1)C(=O)O [RLip-EA-OH, N-(R)-lipoyl-L-glutamyl-L- alanine] | 558

----------
Experiment: Pharmacokinetic evaluation in humans
Type: in vivo
Settings: human, plasma, 150 mg, compartmental, read-out: Vss, Mean (SD)
Method: Plasma and urine RLip-EA-OH concentrations were measured at BASi, Inc. (West Lafayette, Ind.) using a LC/MS/MS method with positive turbo ion spray, in the multiple reaction-monitoring mode. The quantifiable range for human plasma was 1.00 to 500 ng/mL and QC samples were included at 3.00, 75.0 and 375 ng/mL. The PK population included subjects who received RLip-EA-OH and had ≧1 post-dose PK measurement. […]
endpoint label: Vd (L)

compound | endpoint label | result number
C[C@H](NC(=O)[C@H](CCC(=O)O)NC(=O)CCCC[C@@H]1CCSS1)C(=O)O [RLip-EA-OH, N-(R)-lipoyl-L-glutamyl-L- alanine] | Vd | 13

Cited source for all entries: patent US8772250B2
